Origin of the recorded values: PubChem BioAssay (NCI)

Tested on: SF-268 CNS
Test: NCI-60 one-dose screen, 48 h (100 = growth as untreated, 0 = no growth, -100 = all killed)
Settings: 10 µM unless noted
Compounds without any hit were thinned out: in the full panel of roughly 83,000, 20% have a hit.
Would you mind sorting the entries by growth according to these classes? L = under 50%, M = from 50% up to 70%, H = 70% and over

These solved cases illustrate the format of a correct answer.
compound	system	answer.label
C#Cc1cccc(Nc2ncnc3ccc(-c4cnc(N)nc4)cc23)c1	SF-268 CNS	L
C=C(C)[C@@H]1CC[C@]2(C(=O)O)CC[C@]3(C)[C@H](CC[C@@H]4[C@@]5(C)C[C@@H](Cc6cn(CCO[C@@H]7O[C@H](COC(C)=O)[C@H](OC(C)=O)[C@H](OC(C)=O)[C@H]7OC(C)=O)nn6)[C@H](O)C(C)(C)[C@@H]5CC[C@]43C)[C@@H]12	SF-268 CNS	M
O=C(Nn1c2c(sc1=NCc1ccccc1)C(=O)c1ccccc1C2=O)c1cc2ccc1CCc1ccc(cc1)CC2	SF-268 CNS	M
Brc1ccc(-n2cc(-c3nn[nH]n3)c(-c3cccs3)n2)cc1	SF-268 CNS	H
c1cc2[nH]ncc2cc1-c1nc2ccc3[nH]ncc3c2c2c1CCCC2	SF-268 CNS	L

Ask | Category lookup for the compound CN[C@]12CC3(C=CC(=O)C=C3)O[C@@]1(Cc1ccc(OC)cc1)N(C)C(=O)N2
Reply | M

Ask | Category lookup for the compound C[C@@H]1CCC[C@H]1CC(N)C(=O)O (some centres undefined)
Reply | H

Ask | Category lookup for the compound COC(=O)c1cc(-c2ccccc2)[nH]c1N/N=C/c1c(Cl)cccc1Cl
Reply | L

Ask | Category lookup for the compound O=C1COCCN1c1ccc(Nc2nc(Cl)nc(OCc3cn(Cc4ccccc4)nn3)n2)cc1
Reply | H

Ask | Category lookup for the compound O=C(Cn1c(=O)sc2ccccc21)NNS(=O)(=O)c1ccccc1[N+](=O)[O-]
Reply | H

Ask | Category lookup for the compound N#Cc1cccc(F)c1
Reply | H
